Taken from the supplement of paper PMC9170038.

Tested on: MS2 coat protein
Assay: apparent KD of MS2 coat protein; designed switch direction (-1 OFF switch, 1 ON switch): -1; higher = weaker reporter binding
Conditions: Eterna round: R98; input ligand: none
Quick list: apparent KD of MS2 coat protein per entry.
Give just the numeric value; nM need not be written.

- UAUAUAAUUAAGAGCUGGACCAAAACAUGAGGAUCACCCAUGUAGGAUAUCAGCACGAUAAGUGCUGAGAAGGACUACCAGCUC [Denovo 83]: 18.5

If you can, please state the reported apparent KD of MS2 coat protein value of UAUAUAAUAAGAGCUGGAACUCAAACAUGAGGAUCACCCAUGUAGGAUAUCAGCACGAUAAGUGCUGAGAAGGACAACCAGCUC [Denovo 75] .
17.6
